experiment: chemical genetic growth profiling, strain panel (AID 1159580);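 note: tested at 20 µM; growth read once vehicle control cultures reached saturation at 30 °C; 1 = growth at the plate median or of vehicle wells; lower values mean less growth of the strain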; settings: S. cerevisiae deletion strains, growth OD, locus YDR334W, strain swr1, stronger effect = lower value
The whole screen tested about 5,500 compounds, of which about 2,000 (36%) were called active. Roughly 18% stayed inconclusive and do not appear here. The list shows a part of the results.
measure: normalized growth
Write the value as a bare number.

Worked examples follow.
I have this molecule here, `CC(C)(C)NC[C@@H](O)COc1nsnc1N1CCOCC1` , and I need its recorded normalized growth.
1.02

I have this molecule here, `O=C(O)CF` , and I need its recorded normalized growth.
1.03

I have this molecule here, `C=C[C@@H](C1=CC(=O)C(OC)=C(OC)C1=O)c1ccccc1` , and I need its recorded normalized growth.
0.472

I have this molecule here, CC1(C)CCCC2(C)C3C1[C@@H](O)C2(C)C[C@H]3O (some centres undefined) , and I need its recorded normalized growth.
1.03

I have this molecule here, CC1(C)C(C(Cl)Cl)C2(Cl)C(Cl)C(Cl)C1(Cl)C2(Cl)Cl (centres undefined) , and I need its recorded normalized growth.
0.997

I have this molecule here, `CS(=O)(=O)CCCCN=C=S` , and I need its recorded normalized growth.
0.375

Next:
I have this molecule here, C=CC(C1=CC(=O)C(OC)=CC1=O)c1ccc(O)cc1 (centres undefined) , and I need its recorded normalized growth.
1.02

I have this molecule here, C=C(NC(=O)C(=C)NC(=O)c1csc(C2=NC3c4csc(n4)C4NC(=O)c5csc(n5)C(C(C)(O)C(C)O)NC(=O)C5CSC(=N5)C(=CC)NC(=O)C(C(C)O)NC(=O)c5csc(n5)C3(CC2)NC(=O)C(C)NC(=O)C(=C)NC(=O)C(C)NC(=O)C(C(C)CC)NC2C=Cc3c(C(C)O)cc(nc3C2O)C(=O)OC4C)n1)C(N)=O (centres undefined) , and I need its recorded normalized growth.
1.02

I have this molecule here, C=CC(C1=CC(=O)C(OC)=CC1=O)c1ccccc1 (centres undefined) , and I need its recorded normalized growth.
0.999
